Biological target: cAMP and cAMP-inhibited cGMP 3',5'-cyclic phosphodiesterase 10A (Homo sapiens, UniProt Q9Y233)
Sequence (Q9Y233 as listed by the source): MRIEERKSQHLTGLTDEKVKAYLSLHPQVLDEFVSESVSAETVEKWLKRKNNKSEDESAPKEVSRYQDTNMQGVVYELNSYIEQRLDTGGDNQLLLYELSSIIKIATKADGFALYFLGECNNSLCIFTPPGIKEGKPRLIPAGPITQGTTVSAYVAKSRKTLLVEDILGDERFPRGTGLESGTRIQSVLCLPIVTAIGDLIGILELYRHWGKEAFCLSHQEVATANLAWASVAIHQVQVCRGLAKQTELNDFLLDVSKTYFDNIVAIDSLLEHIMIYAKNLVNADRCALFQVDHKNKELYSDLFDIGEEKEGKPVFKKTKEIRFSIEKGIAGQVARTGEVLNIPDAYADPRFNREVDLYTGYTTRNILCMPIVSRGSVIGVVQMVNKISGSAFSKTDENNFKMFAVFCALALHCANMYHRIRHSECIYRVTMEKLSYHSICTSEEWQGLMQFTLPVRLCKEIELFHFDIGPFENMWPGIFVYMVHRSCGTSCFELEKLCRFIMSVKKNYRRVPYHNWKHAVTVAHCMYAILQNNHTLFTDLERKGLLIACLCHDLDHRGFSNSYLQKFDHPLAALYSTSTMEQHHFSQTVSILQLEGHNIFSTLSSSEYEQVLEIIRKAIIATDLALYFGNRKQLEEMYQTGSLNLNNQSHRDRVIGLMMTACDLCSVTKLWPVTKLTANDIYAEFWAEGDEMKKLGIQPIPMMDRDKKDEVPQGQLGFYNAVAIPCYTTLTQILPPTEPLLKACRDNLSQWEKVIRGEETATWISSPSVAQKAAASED
OBSERVATION TYPE: pIC50
API: returns pIC50 as number; meaning -log10 of concentration in mol/L.

MOLECULE: Cn1cncc1Cn1nc(-c2ccccn2)cc1NC(=O)c1nc(C2CC2)ccc1Nc1cncnc1
pIC50: 8.82

MOLECULE: CN(C)c1nc2ccc(NC(=O)c3c(C(=O)N4CCC4)cnn3C)cn2n1 [Roche-Dataset for PDE10A, Compound 652]
pIC50: 8.06

MOLECULE: Cc1noc(C(=O)Nc2ccc3cc(-c4ccccc4)nn3c2)c1Br [Roche-Dataset for PDE10A, Compound 529]
pIC50: 7.74

MOLECULE: O=C(Nc1cccc(OC(F)(F)F)c1)c1nc(C2CC2)cnc1Nc1cncnc1 [Roche-Dataset for PDE10A, Compound 874]
pIC50: 7.51

--- query ---
Exam item: Could you tell me which pIC50 is on file for CC(C)CNC(=O)c1c(NC(=O)c2c(C(=O)N3CCC3)cnn2C)cnn1C [Roche-Dataset for PDE10A, Compound 1069] ?
Marked response: 6.34

---

The compounds below have reported IC50 for cAMP and cAMP-inhibited cGMP 3',5'-cyclic phosphodiesterase 10A (Homo sapiens).
Please respond with the number in nM and leave the unit unwritten.

Worked examples follow.
COMPOUND: O=C(Nc1cccc(N2CCCC2=O)c1)c1nc(C2CC2)cnc1Nc1cncnc1 [Roche-Dataset for PDE10A, Compound 878]
TESTED TARGET: cAMP and cAMP-inhibited cGMP 3',5'-cyclic phosphodiesterase 10A (Homo sapiens)
UNITS OF MEASURE: nM
RESULT NUMBER: 15

COMPOUND: O=C(Nc1conc1-c1ccccn1)c1nc(C2CC2)ccc1Nc1cncnc1 [Roche-Dataset for PDE10A, Compound 990]
TESTED TARGET: cAMP and cAMP-inhibited cGMP 3',5'-cyclic phosphodiesterase 10A (Homo sapiens)
UNITS OF MEASURE: nM
RESULT NUMBER: 15

COMPOUND: Cc1cccc(-c2cn3c(n2)C[C@H](NC(=O)c2c(C(=O)N4CCC4)cnn2C)CC3)c1 [Roche-Dataset for PDE10A, Compound 141]
TESTED TARGET: cAMP and cAMP-inhibited cGMP 3',5'-cyclic phosphodiesterase 10A (Homo sapiens)
UNITS OF MEASURE: nM
RESULT NUMBER: 7.36

Next compound, please.
Exam item: Could you share what IC50 was measured for Cn1ncc(C(=O)N2CCC2)c1C(=O)Nc1ccn2cc(-c3cccc(OCCCF)c3)nc2n1 [Roche-Dataset for PDE10A, Compound 28] , tested on cAMP and cAMP-inhibited cGMP 3',5'-cyclic phosphodiesterase 10A (Homo sapiens)?
Marked response: 7.34
